Molecular target: JAK2 (Homo sapiens (Human))
Sequence (O60674 849-1124): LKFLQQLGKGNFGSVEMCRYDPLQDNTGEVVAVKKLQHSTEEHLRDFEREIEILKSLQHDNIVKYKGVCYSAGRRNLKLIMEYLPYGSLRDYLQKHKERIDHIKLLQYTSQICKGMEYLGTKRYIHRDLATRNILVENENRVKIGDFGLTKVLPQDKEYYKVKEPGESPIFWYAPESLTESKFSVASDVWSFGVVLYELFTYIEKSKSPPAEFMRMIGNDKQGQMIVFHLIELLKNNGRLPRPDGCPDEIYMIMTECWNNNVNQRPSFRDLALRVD
Test: JAK biochemical HTRF enzyme assay, JAK2
Conditions: HTRF, GST-tagged catalytic domain, ATP 8.5 μM
Experimental: The ability of compounds to inhibit the activity of JAK1, JAK2, JAK3, and Tyk2 was measured using a recombinant purified GST-tagged catalytic domain for each enzyme (InVitrogen/Life Technologies/ThermoFisher Scientific Inc., Waltham, Mass., USA; catalogue numbers: M4290(JAK1), M4290(JAK2), M4290(JAK3), M4290(Tyk2)) in an HTRF format biochemical assay. Subsequent reagent additions employed an Agilent™ Bravo™ liquid handling system (Aligent Technologies, Santa Clara, Calif., USA). […]
pIC50: −log10 of the molar value.
ASSAY METRIC: pIC50

Use the examples below as a reference point.
COc1cc(Nc2nn([C@H]3COCC[C@@H]3C#N)cc2C(N)=O)ccc1C#N    8.48
COc1cc(Nc2nn([C@H]3COCC[C@@H]3C#N)cc2C(N)=O)ccc1Cl    8.41
CC(C)c1cc(Nc2nn([C@H]3COCC[C@@H]3C#N)cc2C(N)=O)ccc1C#N    8.01

(I) Cc1noc2ccc(Nc3nn([C@H]4COCC[C@@H]4C#N)cc3C(N)=O)cc12
(II) CSc1cc(Nc2nn([C@H]3COCC[C@@H]3C#N)cc2C(N)=O)ccc1Cl
Form: Entry with minimum pIC50 (choose one): I / II // return label of chosen record
II
(II: 8.26, I: 8.52)

* * *

Target: JAK1 (Homo sapiens (Human), UniProt P23458)
Sequence (P23458 875-1153): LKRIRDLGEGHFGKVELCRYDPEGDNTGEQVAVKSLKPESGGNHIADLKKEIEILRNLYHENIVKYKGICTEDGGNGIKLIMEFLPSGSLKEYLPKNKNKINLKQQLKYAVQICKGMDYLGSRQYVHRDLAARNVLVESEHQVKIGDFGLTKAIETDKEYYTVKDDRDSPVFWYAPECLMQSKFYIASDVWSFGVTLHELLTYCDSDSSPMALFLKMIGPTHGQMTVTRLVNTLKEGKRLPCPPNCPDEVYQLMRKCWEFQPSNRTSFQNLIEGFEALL
Assay: JAK biochemical HTRF enzyme assay, JAK1
Conditions: HTRF, GST-tagged catalytic domain, ATP 31.8 μM
ASSAY METRIC: IC50 (nM)

Cc1noc2ccc(Nc3nn([C@H]4COCC[C@@H]4C#N)cc3C(N)=O)cc12 [Ex-5]    0.16

(A) CC(C)c1cc(Nc2nn([C@H]3COCC[C@@H]3C#N)cc2C(N)=O)ccc1C#N [Ex-4]
(B) CSc1cc(Nc2nn([C@H]3COCC[C@@H]3C#N)cc2C(N)=O)ccc1Cl [Ex-2]
(C) COc1cc(Nc2nn([C@H]3COCC[C@@H]3C#N)cc2C(N)=O)ccc1Cl [Ex-1]
(D) COc1cc(Nc2nn([C@H]3COCC[C@@H]3C#N)cc2C(N)=O)ccc1C#N [Ex-3]
// sort entries: IC50, high to low List the labels in the requested order.
A, B, C, D
(A: 0.49 nM, B: 0.25 nM, C: 0.12 nM, D: 0.07 nM)

* * *

Test system: EPO/Jak2/Stat5 pathway
Assay: EPO CellSensor beta-lactamase reporter assay (irf1-bla TF-1 cells)
Format: cell-based, human
Settings: Homo sapiens, TF-1; reference compound, mean +/- spread across assay runs; read-out: EPO CellSensor assay IC50
ASSAY METRIC: pIC50
Notebook: values listed as pIC50 are -log10 of the concentration (mol/L).

Name the recorded pIC50 for CS(=O)(=O)c1ccc(Nc2nn([C@H]3CCCC[C@@H]3C#N)c3cc[nH]c(=O)c23)cc1 [Reference Compound No. 2, reference compound] .
7.40

* * *

Target: JAK2 (Homo sapiens (Human))
Experiment: JAK biochemical HTRF enzyme assay, JAK2
Conditions: ratio JAK2 IC50 / JAK1 IC50
ASSAY METRIC: JAK2/1

(a) Cc1noc2ccc(Nc3nn([C@H]4COCC[C@@H]4C#N)cc3C(N)=O)cc12
(b) COc1cc(Nc2nn([C@H]3COCC[C@@H]3C#N)cc2C(N)=O)ccc1C#N
Parameter check: reported JAK2/1 is higher for which label, a or b ? // return label of chosen record
b

(1) CSc1cc(Nc2nn([C@H]3COCC[C@@H]3C#N)cc2C(N)=O)ccc1Cl
(2) COc1cc(Nc2nn([C@H]3COCC[C@@H]3C#N)cc2C(N)=O)ccc1Cl
Form: Entry with minimum JAK2/1 (choose one): 1 / 2 // return label of chosen record
1
(1: 22, 2: 32)

* * *

System: EPO/Jak2/Stat5 pathway
Test: EPO CellSensor beta-lactamase reporter assay (irf1-bla TF-1 cells)
Type: cell-based, human
Details: Homo sapiens; irf1-bla TF-1 cells, EPO at EC80; read-out: EPO IP
ASSAY METRIC: IC50 (nM)

Use the examples below as a reference point.
CC(C)c1cc(Nc2nn([C@H]3COCC[C@@H]3C#N)cc2C(N)=O)ccc1C#N    744
COc1cc(Nc2nn([C@H]3COCC[C@@H]3C#N)cc2C(N)=O)ccc1C#N    431
Cc1noc2ccc(Nc3nn([C@H]4COCC[C@@H]4C#N)cc3C(N)=O)cc12    309

(1) CSc1cc(Nc2nn([C@H]3COCC[C@@H]3C#N)cc2C(N)=O)ccc1Cl
(2) COc1cc(Nc2nn([C@H]3COCC[C@@H]3C#N)cc2C(N)=O)ccc1Cl
Parameter check: reported IC50 is higher for which label, 1 or 2 ? // return label of chosen record
1
(1: 649 nM, 2: 280 nM)

* * *

Test system: EPO/Jak2/Stat5 pathway
Test: EPO CellSensor beta-lactamase reporter assay (irf1-bla TF-1 cells)
Assay type: cell-based, human
Conditions: ratio EPO IP / IL-6 IP
ASSAY METRIC: EPO/IL-6
Please state the value as a number alone, without comment.

Use the examples below as a reference point.
Cc1noc2ccc(Nc3nn([C@H]4COCC[C@@H]4C#N)cc3C(N)=O)cc12 [Ex-5]    18
CC(C)c1cc(Nc2nn([C@H]3COCC[C@@H]3C#N)cc2C(N)=O)ccc1C#N [Ex-4]    16

Name the recorded EPO/IL-6 for COc1cc(Nc2nn([C@H]3COCC[C@@H]3C#N)cc2C(N)=O)ccc1C#N [Ex-3] .
23
